// provenance: patent US6737383B1

# Test system: rape
# method: Test B pre/postemergence rape
# Assay type: in vivo, Brassica napus
# reported conditions: Preemergence, Rate 250 g/ha; scale of 0 to 10 where 0 is no effect and 10 is complete control
result type: Rape plant response rating
Could you respond with only the numeric value?

Worked examples follow.
CC1CC1n1c(=O)on(C(=O)N(c2ccc(Cl)cc2)C(C)C)c1=O (stereo not drawn) :: 2
CC(C)N(C(=O)n1oc(=O)n(N2C(C)CCCC2C)c1=O)c1ccc(F)cc1 (stereo not drawn) :: 0

Here is the next item to consider.
Query :: Fill in reported Rape plant response rating for this entry: CC(C)N(C(=O)n1oc(=O)n(CCC#N)c1=O)c1ccc(F)cc1
Result :: 2

====

# Tested on: sugar beet
# method: Test B pre/postemergence sugar beet
# Assay type: in vivo, Beta vulgaris
# reported conditions: Postemergence, Rate 500 g/ha; scale of 0 to 10 where 0 is no effect and 10 is complete control
result type: Plant response rating, Sugarbeets
Could you respond with only the numeric value?

CCC(C)n1c(=O)on(C(=O)N(c2ccccc2)C(C)C)c1=O (stereo not shown) :: 2
CC(C)N(C(=O)n1oc(=O)n(CCCC(F)(F)F)c1=O)c1ccccc1 :: 7
C=C(Cn1c(=O)on(C(=O)N(c2ccccc2)C(C)C)c1=O)c1cccc(Cl)n1 :: 0

Here is the next item to consider.
Query :: Fill in reported Plant response rating, Sugarbeets for this entry: CC(C)N(C(=O)n1oc(=O)n(CC2CCC2)c1=O)c1ccccc1
Result :: 6

====

# System: crabgrass
# method: Test B pre/postemergence crabgrass
# Format: in vivo, Digitaria sanguinalis
# reported conditions: Preemergence, Rate 125 g/ha; scale of 0 to 10 where 0 is no effect and 10 is complete control
Entries and their Plant response rating, Crabgrass values follow.

Worked examples follow.
CC(C)N(C(=O)n1oc(=O)n(C(C)C(=S)N(C)C)c1=O)c1ccccc1 (centres unmarked) [Compound 704] :: 8
CC(C)N(C(=O)n1oc(=O)n(C(C)Cl)c1=O)c1ccccc1 (centres unmarked) [Compound 438] :: 6
CC(C)N(C(=O)n1oc(=O)n(CO)c1=O)c1ccc(F)cc1 [Compound 470] :: 7
CC(C)N(C(=O)n1oc(=O)n(CC2CCCCO2)c1=O)c1ccc(F)cc1F (centres unmarked) [Compound 715] :: 9
CC(C)N(C(=O)n1oc(=O)n(CC(F)F)c1=O)c1ccc(F)cc1 [Compound 710] :: 10
CC(C)N(C(=O)n1oc(=O)n(CCBr)c1=O)c1ccccc1 [Compound 415] :: 8
Cc1nc(C)c(C(C)n2c(=O)on(C(=O)N(c3ccccc3)C(C)C)c2=O)s1 (centres unmarked) [Compound 442] :: 8

Here is the next item to consider.
Query :: Fill in reported Plant response rating, Crabgrass for this entry: CC(=O)NCCn1c(=O)on(C(=O)N(c2ccc(F)cc2)C(C)C)c1=O [Compound 727]
Result :: 8

====

# Test system: blackgrass
# method: Test B pre/postemergence blackgrass
# Format: in vivo, Alopecurus myosuroides
# reported conditions: Postemergence, Rate 250 g/ha; scale 0 to 10, 0 no effect, 10 complete control
result type: Blackgrass plant response rating

CCN(C(=O)n1oc(=O)n(-c2c(C)cccc2C)c1=O)C1CCCCC1 [Compound 27] :: 0
Cc1cccc(C)c1-n1c(=O)on(C(=O)N(c2ccc(Cl)cc2)C(C)C)c1=O [Compound 47] :: 0
Cc1c(Cl)cccc1-n1c(=O)on(C(=O)N(c2ccc(F)cc2)C(C)C)c1=O [Compound 21] :: 0

Query :: For blackgrass, give the measured Blackgrass plant response rating of the entry CCn1c(=O)on(C(=O)N(c2ccccc2)C(C)C)c1=O [Compound 117]
Result :: 9

Query :: For blackgrass, give the measured Blackgrass plant response rating of the entry CC(C)N(C(=O)n1oc(=O)n(C(C)(C)C)c1=O)c1ccc(Cl)cc1 [Compound 118]
Result :: 7
